- SYSTEM TESTED: T1, CD3ε homodimer protein (human, UniProt P07766 23-126, limits assumed, sulfo-tag or biotin label in some ECL assays)
- T1 construct: also called human CD3ε homodimer protein; CD3 (CD3ε)
- T1 sequence (P07766 23-126 limits assumed): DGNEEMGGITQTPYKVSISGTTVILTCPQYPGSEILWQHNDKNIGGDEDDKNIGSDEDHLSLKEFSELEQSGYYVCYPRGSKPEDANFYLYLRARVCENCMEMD
- PROCEDURE TEXT: SPR, CD3ε homodimer on chip;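 also: biacore SPR with antibody variants flowed as analyte over amine-coupled CD3ε homodimer on a CM chip, bound amount of each single-residue H chain variant over that of parent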
MEASUREMENT KIND: ratio of amounts bound vs CE115HA000
Numbers only.

Please report ratio of amounts bound vs CE115HA000 for every entry that follows.
1. CE115HA000 A56D (antibody, name in Kabat numbering, V domains shown) VH: QVQLVESGGGVVQPGRSLRLSCAASGFTFSNAWMHWVRQAPGKGLEWVAQIKAKSNNYDTYYAESVKGRFTISRDDSKNSLYLQMNSLKTEDTAVYYCRYVHYGAYYGVDAWGQGTTVTVSS VL: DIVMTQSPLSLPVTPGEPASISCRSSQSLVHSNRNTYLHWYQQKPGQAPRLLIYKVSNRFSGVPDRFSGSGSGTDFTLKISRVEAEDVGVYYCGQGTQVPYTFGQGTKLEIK
2. CE115HA000 K52E (antibody, name in Kabat numbering, V domains shown) VH: QVQLVESGGGVVQPGRSLRLSCAASGFTFSNAWMHWVRQAPGKGLEWVAQIEAKSNNYATYYAESVKGRFTISRDDSKNSLYLQMNSLKTEDTAVYYCRYVHYGAYYGVDAWGQGTTVTVSS VL: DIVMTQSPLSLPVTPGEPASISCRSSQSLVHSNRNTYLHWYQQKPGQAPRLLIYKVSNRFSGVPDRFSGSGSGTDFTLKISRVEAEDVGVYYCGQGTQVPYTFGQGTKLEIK
3. CE115HA000 D72E (antibody, name in Kabat numbering, V domains shown) VH: QVQLVESGGGVVQPGRSLRLSCAASGFTFSNAWMHWVRQAPGKGLEWVAQIKAKSNNYATYYAESVKGRFTISREDSKNSLYLQMNSLKTEDTAVYYCRYVHYGAYYGVDAWGQGTTVTVSS VL: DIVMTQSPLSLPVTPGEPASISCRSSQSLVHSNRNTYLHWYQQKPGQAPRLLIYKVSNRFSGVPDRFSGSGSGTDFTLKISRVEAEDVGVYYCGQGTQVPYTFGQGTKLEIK

Response:
[0.51, 0.26, 1.05]
